Target: UniProt:P36897
Sequence (P36897 whole entry): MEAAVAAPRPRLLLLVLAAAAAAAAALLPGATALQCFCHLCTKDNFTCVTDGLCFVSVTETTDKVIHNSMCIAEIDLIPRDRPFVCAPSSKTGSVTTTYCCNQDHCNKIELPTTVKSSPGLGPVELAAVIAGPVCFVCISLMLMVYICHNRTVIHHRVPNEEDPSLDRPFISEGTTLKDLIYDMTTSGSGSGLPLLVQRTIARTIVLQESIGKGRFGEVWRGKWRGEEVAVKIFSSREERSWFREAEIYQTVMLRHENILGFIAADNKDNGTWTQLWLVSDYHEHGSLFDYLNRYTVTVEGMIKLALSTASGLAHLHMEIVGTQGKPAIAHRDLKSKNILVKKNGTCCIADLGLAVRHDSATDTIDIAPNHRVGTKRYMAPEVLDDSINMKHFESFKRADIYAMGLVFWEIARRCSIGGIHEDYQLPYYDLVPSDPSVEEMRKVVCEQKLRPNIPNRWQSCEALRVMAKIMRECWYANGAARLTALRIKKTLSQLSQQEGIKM
Experiment: In vitro Assay
pIC50: −log10 of the molar value.
pIC50 values for the molecules below.

molecule: Cc1nnc(-c2cc(Cl)ccc2F)cc1Nc1ccnc(NC(=O)CCN2CCNC(C(=O)O)C2)c1 (configuration not stated) [US20240018122, Example 92]
system: UniProt:P36897
pIC50: > 9.00

Now for another entry.
Data request: Fill in reported pIC50 for this entry: Cc1nnc(-c2cc(Cl)ccc2F)cc1Nc1ccnc(NC(=O)CCN2CCN(CCS(C)(=O)=O)CC2)c1 [US20240018122, Example 83]
Data returned: > 9.00
